test-target: T1, cyno TfR extracellular domain (analogous construct to human TfR ecd) (cynomolgus monkey, UniProt Q5RDH6 87-760 (Pongo abelii entry))
T1 construct: also called cynoTfR ecd
T1 chain: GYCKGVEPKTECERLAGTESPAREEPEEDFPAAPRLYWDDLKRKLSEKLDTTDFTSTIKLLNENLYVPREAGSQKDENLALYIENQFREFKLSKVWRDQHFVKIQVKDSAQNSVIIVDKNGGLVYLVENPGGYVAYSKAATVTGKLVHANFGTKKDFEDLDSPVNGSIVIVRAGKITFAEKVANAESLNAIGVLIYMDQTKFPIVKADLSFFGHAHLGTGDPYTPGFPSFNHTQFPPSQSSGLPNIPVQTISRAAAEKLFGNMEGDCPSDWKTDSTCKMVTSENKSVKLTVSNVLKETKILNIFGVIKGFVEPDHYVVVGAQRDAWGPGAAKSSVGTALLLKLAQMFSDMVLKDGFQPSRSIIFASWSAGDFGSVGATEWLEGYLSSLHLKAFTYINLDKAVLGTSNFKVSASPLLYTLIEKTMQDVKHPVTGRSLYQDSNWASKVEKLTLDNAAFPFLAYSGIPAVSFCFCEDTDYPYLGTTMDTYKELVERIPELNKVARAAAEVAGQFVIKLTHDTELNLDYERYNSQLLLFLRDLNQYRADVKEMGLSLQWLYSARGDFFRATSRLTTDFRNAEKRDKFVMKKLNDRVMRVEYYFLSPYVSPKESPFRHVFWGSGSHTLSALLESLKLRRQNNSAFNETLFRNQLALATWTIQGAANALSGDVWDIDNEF
procedure-text: SPR, TfR captured by anti-His, Fab injected
Entries and their measured koff follow.
Number plus unit, in that order.

Known results for binders:
| binder | koff |
| --- | --- |
| Hu15G11.HC51A Fab (Fab, V domains shown, Fab) VH: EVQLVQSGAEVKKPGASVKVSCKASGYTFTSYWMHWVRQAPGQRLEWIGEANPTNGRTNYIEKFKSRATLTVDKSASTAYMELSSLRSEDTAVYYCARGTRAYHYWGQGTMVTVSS VL: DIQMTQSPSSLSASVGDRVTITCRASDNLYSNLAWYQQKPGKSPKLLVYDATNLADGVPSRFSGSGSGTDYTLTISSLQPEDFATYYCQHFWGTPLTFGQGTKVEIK | 0.0329 s⁻¹ |
| Hu15G11.HC53A Fab (Fab, V domains shown, Fab; also called 15G11.53A Fab) VH: EVQLVQSGAEVKKPGASVKVSCKASGYTFTSYWMHWVRQAPGQRLEWIGEINPANGRTNYIEKFKSRATLTVDKSASTAYMELSSLRSEDTAVYYCARGTRAYHYWGQGTMVTVSS VL: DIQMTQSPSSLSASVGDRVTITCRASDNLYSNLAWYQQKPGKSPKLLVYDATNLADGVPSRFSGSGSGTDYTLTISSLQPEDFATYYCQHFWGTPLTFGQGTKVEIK | 0.025 s⁻¹ |
| Hu15G11.v5.Fab (Fab, V domains shown, Fab) VH: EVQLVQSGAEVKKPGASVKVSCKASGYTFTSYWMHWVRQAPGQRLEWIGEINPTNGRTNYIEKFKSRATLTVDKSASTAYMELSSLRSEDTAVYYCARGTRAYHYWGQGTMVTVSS VL: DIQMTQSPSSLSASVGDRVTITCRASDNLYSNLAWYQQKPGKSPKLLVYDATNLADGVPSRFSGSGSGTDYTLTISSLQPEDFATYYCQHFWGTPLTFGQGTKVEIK | 0.0127 s⁻¹ |

Pending binder:
# input binder: Hu15G11.HC34A Fab (Fab, V domains shown, Fab) VH: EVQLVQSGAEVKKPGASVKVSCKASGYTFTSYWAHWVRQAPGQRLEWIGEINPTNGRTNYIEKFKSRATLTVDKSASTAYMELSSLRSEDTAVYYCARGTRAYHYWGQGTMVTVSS VL: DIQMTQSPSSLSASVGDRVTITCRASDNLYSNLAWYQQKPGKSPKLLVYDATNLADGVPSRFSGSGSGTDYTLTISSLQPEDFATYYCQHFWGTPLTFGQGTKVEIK ; wanted: its koff
0.0099 s⁻¹

FYI, the data here is from patent US20180057604A1.
